- system under test: RpACBP-5 (acyl-CoA-binding protein 5) (Rhodnius prolixus, UniProt M4WG04)
- Construct: recombinant RpACBP-5 expressed in E. coli BL21 (DE3) (GenBank KC417418; 261 bp)
- Sequence (M4WG04 entry or part of it): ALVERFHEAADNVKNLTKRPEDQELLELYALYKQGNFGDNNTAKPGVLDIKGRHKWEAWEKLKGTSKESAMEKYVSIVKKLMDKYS
- assay info: isothermal titration calorimetry (VP-ITC, […]°C, pH […])
recorded metric: Kd

Reported Kd ( CCCCCCCCCCCC(=O)SCCNC(=O)CCNC(=O)[C@H](O)C(C)(C)COP(=O)(O)OP(=O)(O)OC[C@H]1O[C@@H](n2cnc3c(N)ncnc32)[C@H](O)[C@@H]1OP(=O)(O)O ) = 399 nM
